Recorded values, source PubChem BioAssay AID651949.

Test: viability loss in HEK293T cells – cell-based, CellTiter-Glo luminescence, dry powder, set 6, cytotoxicity control, dose response (AID 651949)
Conditions: CellTiter-Glo ATP luminescence, 48 h; series mostly up to 26 µM
Results with a measured potency or affinity are listed apart. Activity calls are given as the source filed them.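 Rule for the calls: active = compounds lowering cell ATP signal whose fitted half-maximal concentration is at most twice the top tested dose; inconclusive = flat curve with 30 to 70% signal loss, or poor fit; inactive = the rest.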

{"smilesString": "FC(F)(F)CNCCSc1nnc(-c2ccccc2)o1", "outcome": "inactive"}
{"smilesString": "Clc1ccc(-c2nnc(SCc3ccccn3)o2)cc1", "outcome": "inactive"}
{"smilesString": "Fc1cccc(CSc2nnc(-c3ccccc3)o2)c1", "outcome": "inactive"}

----------
Test: viability loss in HEK293T cells – cell-based, CellTiter-Glo luminescence, dry powder, set 6, cytotoxicity control, dose response (AID 651949)
Details: CellTiter-Glo ATP luminescence, 48 h; series mostly up to 26 µM
Potency and affinity values are given separately. Calls of active or inactive are those of the source.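 Rule for the calls: active = compounds lowering cell ATP signal whose fitted half-maximal concentration is at most twice the top tested dose; inconclusive = flat curve with 30 to 70% signal loss, or poor fit; inactive = the rest.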

{"smilesString": "c1ccc(CSc2nnc(-c3ccccn3)o2)cc1", "outcome": "inactive"}
{"smilesString": "COc1ccccc1CSc1nnc(-c2ccccc2)o1", "outcome": "inactive"}
{"smilesString": "CC(C)c1nnc(SCc2ccccc2)o1", "outcome": "inactive"}
{"smilesString": "Clc1cccc(-c2nnc(SCc3ccccc3)o2)c1", "outcome": "inactive"}
{"smilesString": "Cc1cccc(CSc2nnc(-c3ccc(Cl)cc3)o2)n1", "outcome": "inactive"}
{"smilesString": "COc1ccccc1-c1nnc(SCc2ccccn2)o1", "outcome": "inactive"}
{"smilesString": "c1ccc(CSc2nnc(-c3cccs3)o2)cc1", "outcome": "inactive"}
{"smilesString": "COc1cccc(CSc2nnc(-c3ccccc3)o2)c1", "outcome": "inactive"}
{"smilesString": "N#Cc1ccc(-c2nnc(SCc3ccccc3)o2)cc1", "outcome": "inactive"}
{"smilesString": "FC(F)(F)Oc1ccc(-c2nnc(SCc3ccccc3)o2)cc1", "outcome": "inactive"}
{"smilesString": "Cc1cccc(CSc2nnc(-c3ccccc3)o2)c1", "outcome": "inactive"}
{"smilesString": "Cc1cccc(-c2nnc(SCc3ccccc3)o2)c1", "outcome": "inactive"}
{"smilesString": "Fc1ccc(CSc2nnc(-c3cccnc3)o2)cc1", "outcome": "inactive"}
